- Test system: HeLa Kyoto
- Protocol Summary: solubility change mitosis vs G1/S (difference of NP-40 vs SDS log2 ratios) (log2 ratio difference); higher = more soluble in mitosis
Give solubility change mitosis (log2) for every item shown.
Give bare numbers.

Before answering, review these 5 worked examples.
Ordered Residues: MAAVAATAAAKGNGGGGGRAGAGDASGTRKKKGPGPLATAYLVIYNVVMTAGWLVIAVGLVRAYLAKGSYHSLYYSIEKPLKFFQTGALLEILHCAIGIVPSSVVLTSFQVMSRVFLIWAVTHSVKEVQSEDSVLLFVIAWTITEIIRYSFYTFSLLNHLPYLIKWARYTLFIVLYPMGVSGELLTIYAALPFVRQAGLYSISLPNKYNFSFDYYAFLILIMISYIPIFPQLYFHMIHQRRKILSHTEEHKKFE [HACD2]
Assayed System: HeLa Kyoto
Measured Parameter: solubility change mitosis (log2)
Result Value: 0.15

Ordered Residues: MEDDAPVIYGLEFQARALTPQTAETDAIRFLVGTQSLKYDNQIHIIDFDDENNIINKNVLLHQAGEIWHISASPADRGVLTTCYNRTSDSKVLTCAAVWRMPKELESGSHESPDDSSSTAQTLELLCHLDNTAHGNMACVVWEPMGDGKKIISLADNHILLWDLQESSSQAVLASSASLEGKGQLKFTSGRWSPHHNCTQVATANDTTLRGWDTRSMSQIYCIENAHGQLVRDLDFNPNKQYYLASCGDDCKVKFWDTRNVTEPVKTLEEHSHWVWNVRYNHSHDQLVLTGSSDSRVILSNMVSISSEPFGHLVDDDDISDQEDHRSEEKSKEPLQDNVIATYEEHEDSVYAVDWSSADPWLFASLSYDGRLVINRVPRALKYHILL [TSSC1]
Assayed System: HeLa Kyoto
Measured Parameter: solubility change mitosis (log2)
Result Value: -0.21

Ordered Residues: MAAPQDVHVRICNQEIVKFDLEVKALIQDIRDCSGPLSALTELNTKVKEKFQQLRHRIQDLEQLAKEQDKESEKQLLLQEVENHKKQMLSNQASWRKANLTCKIAIDNLEKAELLQGGDLLRQRKTTKESLAQTSSTITESLMGISRMMAQQVQQSEEAMQSLVTSSRTILDANEEFKSMSGTIQLGRKLITKYNRRELTDKLLIFLALALFLATVLYIVKKRLFPFL [BNIP1]
Assayed System: HeLa Kyoto
Measured Parameter: solubility change mitosis (log2)
Result Value: -0.0998

Ordered Residues: MADDLGDEWWENQPTGAGSSPEASDGEGEGDTEVMQQETVPVPVPSEKTKQPKECFLIQPKERKENTTKTRKRRKKKITDVLAKSEPKPGLPEDLQKLMKDYYSSRRLVIELEELNLPDSCFLKANDLTHSLSSYLKEICPKWVKLRKNHSEKKSVLMLIICSSAVRALELIRSMTAFRGDGKVIKLFAKHIKVQAQVKLLEKRVVHLGVGTPGRIKELVKQGGLNLSPLKFLVFDWNWRDQKLRRMMDIPEIRKEVFELLEMGVLSLCKSESLKLGLF [CMSS1]
Assayed System: HeLa Kyoto
Measured Parameter: solubility change mitosis (log2)
Result Value: 0.103

Ordered Residues: MAGSYPEGAPAILADKRQQFGSRFLSDPARVFHHNAWDNVEWSEEQAAAAERKVQENSIQRVCQEKQVDYEINAHKYWNDFYKIHENGFFKDRHWLFTEFPELAPSQNQNHLKDWFLENKSEVCECRNNEDGPGLIMEEQHKCSSKSLEHKTQTPPVEENVTQKISDLEICADEFPGSSATYRILEVGCGVGNTVFPILQTNNDPGLFVYCCDFSSTAIELVQTNSEYDPSRCFAFVHDLCDEEKSYPVPKGSLDIIILIFVLSAVVPDKMQKAINRLSRLLKPGGMVLLRDYGRYDMAQLRFKKGQCLSGNFYVRGDGTRVYFFTQEELDTLFTTAGLEKVQNLVDRRLQVNRGKQLTMYRVWIQCKYCKPLLSSTS [METTL2B]
Assayed System: HeLa Kyoto;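 note: synchronized HeLa Kyoto cells (double thymidine block for G1/S, nocodazole release for mitosis), protein amounts in NP-40 versus SDS lysates quantified by mass spectrometry, three biological replicates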
Measured Parameter: solubility change mitosis (log2)
Result Value: -0.231

Your task in this section: give solubility change mitosis (log2) for each listed record.
1. MVFPAKRFCLVPSMEGVRWAFSCGTWLPSRAEWLLAVRSIQPEEKERIGQFVFARDAKAAMAGRLMIRKLVAEKLNIPWNHIRLQRTAKGKPVLAKDSSNPYPNFNFNISHQGDYAVLAAEPELQVGIDIMKTSFPGRGSIPEFFHIMKRKFTNKEWETIRSFKDEWTQLDMFYRNWALKESFIKAIGVGLGFELQRLEFDLSPLNLDIGQVYKETRLFLDGEEEKEWAFEESKIDEHHFVAVALRKPDGSRHQDVPSQDDSKPTQRQFTILNFNDLMSSAVPMTPEDPSFWDCFCFTEEIPIRNGTKS [AASDHPPT]
2. MAAAEPAVLALPNSGAGGAGAPSGTVPVLFCFSVFARPSSVPHGAGYELLIQKFLSLYGDQIDMHRKFVVQLFAEEWGQYVDLPKGFAVSERCKVRLVPLQIQLTTLGNLTPSSTVFFCCDMQERFRPAIKYFGDIISVGQRLLQGARILGIPVIVTEQYPKGLGSTVQEIDLTGVKLVLPKTKFSMVLPEVEAALAEIPGVRSVVLFGVETHVCIQQTALELVGRGVEVHIVADATSSRSMMDRMFALERLARTGIIVTTSEAVLLQLVADKDHPKFKEIQNLIKASAPESGLLSKV [ISOC1]
3. MDLLQFLAFLFVLLLSGMGATGTLRTSLDPSLEIYKKMFEVKRREQLLALKNLAQLNDIHQQYKILDVMLKGLFKVLEDSRTVLTAADVLPDGPFPQDEKLKDAFSHVVENTAFFGDVVLRFPRIVHYYFDHNSNWNLLIRWGISFCNQTGVFNQGPHSPILSLMAQELGISEKDSNFQNPFKIDRTEFIPSTDPFQKALREEEKRRKKEEKRKEIRKGPRISRSQSEL [CCDC134]
4. MKHINLSFAACGFLGIYHLGAASALCRHGKKLVKDVKAFAGASAGSLVASVLLTAPEKIEECNQFTYKFAEEIRRQSFGAVTPGYDFMARLRSGMESILPPSAHELAQNRLHVSITNAKTRENHLVSTFSSREDLIKVLLASSFVPIYAGLKLVEYKGQKWVDGGLTNALPILPVGRTVTISPFSGRLDISPQDKGQLDLYVNIAKQDIMLSLANLVRLNQALFPPSKRKMESLYQCGFDDTVKFLLKENWFE [PNPLA4]
5. MAAKVFESIGKFGLALAVAGGVVNSALYNVDAGHRAVIFDRFRGVQDIVVGEGTHFLIPWVQKPIIFDCRSRPRNVPVITGSKDLQNVNITLRILFRPVASQLPRIFTSIGEDYDERVLPSITTEILKSVVARFDAGELITQRELVSRQVSDDLTERAATFGLILDDVSLTHLTFGKEFTEAVEAKQVAQQEAERARFVVEKAEQQKKAAIISAEGDSKAAELIANSLATAGDGLIELRKLEAAEDIAYQLSRSRNITYLPAGQSVLLQLPQ [PHB]

## Output
-0.124
-0.11
0.012
-0.145
-0.0774
